- System: Staphylococcus aureus
- Assay Name: Effect on proton gradient of cytoplasmic membrane in Staphylococcus aureus ATCC25923 at 1 ug/ml measured after 20 mins by diSC35 dye based analysis
- Assay type: functional, organism-based
- Assay Context: Cytoplasm membrane, dose 1.0 µg/ml
Calls of active or inactive are those of the source. No cut-off for these calls is given here.
Please state which outcome applies, choosing from 1.0 for active, 0.0 for inactive

[
  {
    "Chem Smiles": "C[n+]1cc(-c2ccccc2)c(/C=C/c2ccccc2)cc1-c1ccc(C(C)(C)C)cc1",
    "Class Label": 0.0
  },
  {
    "Chem Smiles": "C[n+]1cc(-c2ccccc2)c(/C=C/c2ccc(C(C)(C)C)cc2)cc1-c1ccccc1.[I-]",
    "Class Label": 0.0
  },
  {
    "Chem Smiles": "C[n+]1ccc(/C=C/c2ccccc2)c(-c2ccccc2)c1",
    "Class Label": 0.0
  }
]

### Prompt Hi, do you know how C[n+]1cc(-c2ccccc2)c(/C=C/c2ccc(C(C)(C)C)cc2)cc1-c1ccc(C(C)(C)C)cc1.[I-] came out in this test?
### Response 1.0

### Prompt Hi, do you know how Cc1cc(-c2ccccc2)[n+](C)cc1-c1ccccc1 came out in this test?
### Response 0.0
